assay: MM1S cell viability effects, profiling panel, calcein-AM fluorescence, 48 h, basal (AID 1165); conditions: higher = more signal;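 also: viability of MM1S multiple myeloma cells under basal unstimulated conditions; test concentration not given here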
Can you tell me z-score for the items I'm about to list?
Would you mind answering with just the numeric figure?

Challenge: # query: z-score of entry `O=C1C[C@@](C(=O)NC2CC2)(c2ccc([N+](=O)[O-])cc2)[C@@H](c2ccc(CO)cc2I)N1C1CCCCC1`
Response given: -1.77

Challenge: How about this compound: [N-]=[N+]=NCc1ccccc1[C@@H]1OC(c2ccc(OCCCO)cc2)=N[C@]1(Cc1ccccc1)C(=O)NCC(O)CO (stereo partly drawn)
Response given: -1.07

Challenge: How about this compound: `COC(=O)[C@@]1(Cc2ccc(F)cc2)[C@H]2c3cc(C(=O)N(C)C)n(Cc4ccccc4)c3C[C@H]2CN1C(=O)c1ccccc1`
Response given: -0.812

Challenge: How about this compound: `COc1cc2c(cc1OC)CN(C(=O)[C@H]1[C@@H]3C(=O)O[C@@H](c4ccccc4)[C@@H](c4ccccc4)N3[C@@H](c3ccc(O)cc3)[C@]13C(=O)Nc1ccccc13)CC2`
Response given: -0.723

Challenge: How about this compound: `Oc1ccc2cc[n+](Cc3sc4ccccc4c3Cl)cc2c1`
Response given: 0.241

Challenge: How about this compound: CC(C)C(CO)N1C(=O)[C@@H]2C3C(=O)OCCC/C=C\[C@H]3OC23C=CCN(CCN2CCOCC2)C(=O)[C@@H]13 (stereo partly drawn)
Response given: 0.171

Challenge: How about this compound: `[N-]=[N+]=Nc1ccccc1[C@H]1OC(c2ccc(OCCCO)cc2)=N[C@@]1(CCS(=O)(=O)c1ccccc1)C(N)=O`
Response given: -0.57

Challenge: How about this compound: `COC(=O)[C@@]1(Cc2ccc(OC)cc2)[C@@H]2C(=CC(=O)[C@H]2CC(=O)C(=O)N2CCCC2)CN1C(=O)c1ccccc1`
Response given: -0.565

----------
Can you tell me z-score for the items I'm about to list?
test: PSAC antagonists in infected red cells, primary screen, cell-based, P. falciparum Indochina, OD700, 18 h (AID 1157); settings: P. falciparum Indochina infected erythrocytes, osmotic lysis OD700, 18 h; higher = more signal, called active from +8 up or from −8 down
Would you mind answering with just the numeric figure?

Challenge: # query: z-score of entry `COC(=O)C(CC#Cc1ccc2c(c1)[C@]1(C(=O)N2)[C@H](C(=O)Nc2nc3ccccc3s2)[C@H]2C(=O)O[C@H](c3ccccc3)[C@H](c3ccccc3)N2[C@@H]1c1ccccc1OCCO)C(=O)OC`
Response given: 1.69

Challenge: How about this compound: `Cc1ccc([C@@H]2C[C@@H](Sc3ccccc3)[C@H](C(=O)O)CN2S(=O)(=O)c2ccc(C)cc2)cc1`
Response given: 0.759

Challenge: How about this compound: `COC(=O)[C@@]1(CCC(=O)OC(C)(C)C)N=C(c2ccc(OCCCO)cc2)O[C@H]1c1ccccc1N=[N+]=[N-]`
Response given: 5.1

Challenge: How about this compound: `O=C1N[C@@H](Cc2ccccc2)C(=O)N2[C@@H]1C[C@@H](C(=O)O)[C@H]2c1cccc(OCCO)c1`
Response given: 0.375

Challenge: How about this compound: `C=CCOC(=O)[C@H]1[C@@H]2C(=O)O[C@@H](c3ccccc3)[C@@H](c3ccccc3)N2[C@@H](c2ccc(OCCOC(=O)[C@@H]3C[C@@H]4C(=O)N[C@@H](CCCCNC(C)=O)C(=O)N4[C@@H]3c3ccc(O)cc3)cc2)[C@]12C(=O)Nc1ccccc12`
Response given: 0.841

Challenge: How about this compound: `CCC[C@@H]1C[C@@]1(CCC)[C@@H](NC(=O)c1ccccc1)c1cccc(Cl)c1`
Response given: 0.839

----------
assay: binders of probe aFGF2 on microarray, primary screen, stem cell growth factor project, biochemical, small-molecule microarray, fluorescence 635/667 (AID 1067); settings: higher = more signal;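 also: measures binding of biotinylated aFGF2 protein to printed compounds on slides; z-score merges feature fluorescence and signal-to-noise across triplicate slides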
Can you tell me composite z-score for the items I'm about to list?
Would you mind answering with just the numeric figure?

Challenge: # query: composite z-score of entry `Cc1ccc(S[C@]2(C(=O)NCCCN(C)C)CC(=O)N(Cc3cc(C(F)(F)F)cc(C(F)(F)F)c3)[C@@H]2c2ccc(CO)cc2I)cc1`
Response given: -0.0894

Challenge: How about this molecule: `COC(=O)[C@@]1(Cc2ccc(F)cc2)[C@H]2c3cc(C(=O)N4CCCC4)n(Cc4ccc(S(C)(=O)=O)cc4)c3C[C@H]2CN1C(=O)c1ccccc1`
Response given: 0.29

Challenge: How about this molecule: O[C@@H](Cc1ccccc1)[C@H]1C2C=CCCC=C2CN1Cc1cccc(Cl)c1 (some centres undefined)
Response given: -0.0075

Challenge: How about this molecule: `Cc1ccc(S[C@]2(C(=O)NCCCN(C)C)CC(=O)N(Cc3cc(C(F)(F)F)cc(C(F)(F)F)c3)[C@@H]2c2ccc(CO)cc2)cc1`
Response given: -0.159

----------
molecular target: Follistatin (Homo sapiens); experiment: follistatin binders on small-molecule microarrays, primary screen, biochemical, small-molecule microarray, 635/667 nm fluorescence (AID 1132); conditions: FST binding, 635 nm fluorescence, higher = more signal
Can you tell me composite z-score for the items I'm about to list?
Would you mind answering with just the numeric figure?

Challenge: # query: composite z-score of entry `C[N+](C)(C)CCCCNC(=O)[C@@H]1C[C@@H]2C(=O)N[C@@H](Cc3ccccc3)C(=O)N2[C@@H]1c1cccc(OCCO)c1`
Response given: 1.32

Challenge: How about this molecule: `[N-]=[N+]=Nc1ccccc1[C@@H]1OC(c2ccc(OCCCO)cc2)=N[C@]1(Cc1ccccc1)C(=O)N1CCOCC1`
Response given: 1.26

Challenge: How about this molecule: `COCCOC(=O)N1C(=O)[C@@]2(c3ccccc31)[C@H](c1ccccc1OCCO)N1[C@H](c3ccccc3)[C@H](c3ccccc3)OC(=O)[C@H]1[C@@H]2C(=O)N1CCN(c2ncccn2)CC1`
Response given: 0.755

Challenge: How about this molecule: COc1cc2c(cc1O)C(C1CC1)N(Cc1sc3ccccc3c1Cl)CC2 (stereo not drawn)
Response given: 0.439

Challenge: How about this molecule: `CC(C)C(=C=CC[C@H](O)c1ccc(OCCO)cc1)CCO`
Response given: 1.38

Challenge: How about this molecule: `CNS(=O)(=O)c1ccc(C)cc1`
Response given: 0.884

Challenge: How about this molecule: `C=CC[C@]1(C(=O)NCc2ccccc2)N=C(c2ccc(OCCCO)cc2)O[C@H]1c1ccccc1N=[N+]=[N-]`
Response given: 1.23

Challenge: How about this molecule: `CCCCCCc1nc(-c2ccc(OC)nc2)cc2c1[Si](C(C)C)(C(C)C)O[C@H]2c1ccccc1`
Response given: 0.885

----------
Can you tell me z-score for the items I'm about to list?
assay: basal HepG2 mitochondrial membrane potential changes, profiling panel, cell-based, JC-1 fluorescence, 24 h, 100 nL compound (AID 1167); details: higher = more signal; also: test concentration not given here
Would you mind answering with just the numeric figure?

Challenge: # query: z-score of entry `CCCC[C@@H]1C[C@H]1[C@@H](NC(=O)c1ccco1)c1ccccc1C(F)(F)F`
Response given: -1.7

Challenge: How about this compound: `Cc1ccc(N2C(=O)c3ccccc3[C@@H](C(=O)NC3CC3)[C@@H]2c2ccc(CO)cc2)nc1`
Response given: -0.0756

Challenge: How about this compound: `CC[C@@H]1C=C(C(=O)O)[C@H](c2ccc(Br)cc2)N1S(=O)(=O)c1ccc(C)cc1`
Response given: -0.131

Challenge: How about this compound: `CN(C)CCCCCCNC(=O)[C@H]1C[C@H]2C(=O)N[C@@H](CCCCN)C(=O)N2[C@H]1c1cccc(OCCO)c1`
Response given: 0.272

----------
biological target: E3 ubiquitin-protein ligase XIAP (Homo sapiens) (UniProt P98170); assay: XIAP binders, primary screen, biophysical, small-molecule microarray, fluorescence 635 nm (AID 1181); conditions: small-molecule microarray binding, higher = more signal;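 also: score merges 667 nm emission and signal to noise over triplicate slides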
Sequence (P98170 whole entry, looked up): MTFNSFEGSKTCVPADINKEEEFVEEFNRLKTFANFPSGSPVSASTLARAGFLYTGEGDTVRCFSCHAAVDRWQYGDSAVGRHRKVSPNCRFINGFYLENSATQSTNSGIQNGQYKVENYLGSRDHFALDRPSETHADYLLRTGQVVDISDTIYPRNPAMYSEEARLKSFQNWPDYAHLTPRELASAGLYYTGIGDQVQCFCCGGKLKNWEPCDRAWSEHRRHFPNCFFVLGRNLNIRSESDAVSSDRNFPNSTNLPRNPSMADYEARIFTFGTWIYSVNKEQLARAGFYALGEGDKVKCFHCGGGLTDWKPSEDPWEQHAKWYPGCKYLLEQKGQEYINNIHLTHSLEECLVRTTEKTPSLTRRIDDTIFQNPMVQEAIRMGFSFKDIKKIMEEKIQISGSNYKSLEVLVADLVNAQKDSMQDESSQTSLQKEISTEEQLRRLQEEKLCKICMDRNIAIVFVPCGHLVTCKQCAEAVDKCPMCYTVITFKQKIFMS
composite z-score below 0.06 gives NO; composite z-score at or above it gives YES.

Challenge: Evaluate `O=C1N(Cc2ccccc2)c2ccccc2[C@@H]2OC(c3ccc(OCCCO)cc3)=N[C@]12CCS(=O)(=O)c1ccccc1` : composite z-score at minimum 0.06?
Response given: NO

Challenge: How about this compound: `COC(=O)[C@@]1(Cc2ccccc2)[C@H]2c3cc(C(=O)N(C)C)n(Cc4ccsc4Br)c3C[C@H]2CN1C(=O)c1ccccc1`
Response given: NO

Challenge: How about this compound: `O=C1C[C@@](C(=O)NCCN2CCOCC2)(c2ccc([N+](=O)[O-])cc2)[C@@H](c2ccc(CO)cc2)N1CC12CC3CC(CC(C3)C1)C2`
Response given: NO

Challenge: How about this compound: CN1C=C(C(=O)OCCS(C)(=O)=O)C(C(=O)OCCS(C)(=O)=O)=CC(c2ccc(CO)cc2)=CC1C1CC1 (configuration not stated)
Response given: NO

Challenge: How about this compound: `COC(=O)C[C@H]1O[C@]2(C(=O)N(C)c3ccccc32)[C@@H](C)[C@@H]1[Si](C)(C)F`
Response given: YES

Challenge: How about this compound: `C=C[C@H](OC)[C@@H](OC(=O)Nc1ccc(OC)cc1)c1ccc(O)c(F)c1`
Response given: YES

Challenge: How about this compound: `CN(C)CCCC[C@@H]1NC(=O)[C@@H]2C[C@H](C(=O)NCCCCCCN)[C@H](c3cccc(OCCO)c3)N2C1=O`
Response given: YES
